Each recorded value in this set is attributed to PubChem BioAssay (NCI).

# Tested on: SNB-78 CNS
# assay-procedure: NCI tumour cell line growth inhibition, 48 h

# compound, TGI
measured = [
    ("O=C1C2C3CC4C5C3C1C5C1(SCCS1)C42 (stereo not given)", "> 100 µM"),
    ("N#CC(C(=O)CCCC(=O)Nc1ccccc1[N+](=O)[O-])c1c(Cl)cccc1Cl (stereo not given)", "> 100 µM"),
    ("NC(N)NCCCc1cn2c(n1)C1CCCN1C(=O)C2Cc1ccccc1 (stereo not given)", "> 100 µM"),
    ("C=C=C[P+](c1ccccc1)(c1ccccc1)c1ccccc1", "86 µM"),
    ("COc1ccc2c(c1)[C@@H](NC(C)=O)CCc1cc(OC)c(OC)c(OC)c1-2", "> 100 µM"),
    ("O=P1(NCCCl)OCCCN1CCCl (stereo not given)", "451 µM"),
    ("CCN(CC)CC(=O)NC1c2ccccc2Oc2ccccc21", "> 100 µM"),
    ("CC(C)(CN1CCCCC1)C(=O)/C=C/c1ccccc1", "80.9 µM"),
    ("CC(=O)OCC1OC(N2C(=O)[C@@H](Oc3ccccc3)[C@H]2/C=C/c2ccccc2)C(OC(C)=O)C(OC(C)=O)C1OC(C)=O (stereo not given in full)", "> 100 µM"),
    ("O=C(O)CN1CCSc2ccccc2CN(CC(=O)O)CCSc2ccccc2C1", "> 100 µM"),
]
